// data source = patent US10294202B2

test system: corn; test: Test C pre-/postemergence herbicide test; assay type: in vivo, Zea mays; settings: Preemergence, 250 g ai/ha
Label F if Plant response rating (scale of 0 to 100), Corn falls below 60; label T in every other case.

Illustrative cases are given below, each with its answer.
q: Test whether the molecule Cc1cccc(NC(=O)C2C(=O)NCC2c2cccc(C(F)(F)F)c2)c1 (stereo not drawn) [Compound 317] records Plant response rating (scale of 0 to 100), Corn of 60 or higher.
a: F

q: Test whether the molecule O=C1NCC(c2cccc(C(F)(F)F)c2)C1C(=O)Nc1ccccc1Cl (stereo not drawn) [Compound 312] records Plant response rating (scale of 0 to 100), Corn of 60 or higher.
a: T

q: Test whether the molecule O=C1NCC(c2cccc(C(F)(F)F)c2)C1C(=O)Nc1ccc(F)c(F)c1F (stereo not drawn) [Compound 315] records Plant response rating (scale of 0 to 100), Corn of 60 or higher.
a: T

Then this molecule:
q: Test whether the molecule CN1CC(c2ccc(F)c(F)c2)C(C(=O)Nc2ccccc2F)C1=O (stereo not drawn) [Compound 302] records Plant response rating (scale of 0 to 100), Corn of 60 or higher.
a: F

---

In this section we review reported Plant response rating, Waterhemp values for a set of compounds.
system: waterhemp; experiment: Test C pre-/postemergence herbicide test; assay type: in vivo, Amaranthus rudis; details: Preemergence, 125 g ai/ha; scale 0 to 100 (0 no effect, 100 complete control)
Please reply with the value in numeric form only.

Worked examples follow.
Item O=C1NCC(c2ccc(F)c(C(F)(F)F)c2)C1C(=O)Nc1ccccc1C(F)(F)F (racemic) ; assay system waterhemp; Plant response rating, Waterhemp reported as 85

Item O=C1NCC(c2ccc(F)c(C(F)(F)F)c2)C1C(=O)Nc1ccccc1F (racemic) ; assay system waterhemp; Plant response rating, Waterhemp reported as 50

Item O=C1NCC(c2cc(F)cc(F)c2)C1C(=O)Nc1ccc(F)cc1F (racemic) ; assay system waterhemp; Plant response rating, Waterhemp reported as 0

Item O=C1NCC(c2ccc(C(F)(F)F)cc2)C1C(=O)Nc1ccccc1Cl (stereo not drawn) ; assay system waterhemp; Plant response rating, Waterhemp reported as 85

Item CN1CC(c2ccc(C(F)(F)F)cc2)C(C(=O)Nc2ccccc2F)C1=O (stereo not drawn) ; assay system waterhemp; Plant response rating, Waterhemp reported as 85

Here is another compound to look at.
Item O=C1NCC(c2ccc(F)cc2)C1C(=O)Nc1cccc(F)c1F (racemic) ; assay system waterhemp; Plant response rating, Waterhemp reported as 70

---

tested on: galium; experiment: Test A postemergence herbicide test; type: in vivo, Galium aparine; settings: 500 g ai/ha, 0 to 100 scale (0 no effect, 100 complete control)
quantityKind: Plant response rating, Galium
Please reply with the value in numeric form only.

Worked examples follow.
Value of Plant response rating, Galium reported for the compound CN1CC(c2ccc(F)c(F)c2)C(C(=O)Nc2ccccc2F)C1=O (stereo not shown) is 60

Value of Plant response rating, Galium reported for the compound O=C1NCC(c2cccc(Oc3ccccc3)c2)C1C(=O)Nc1ccccc1F (stereo not shown) is 30

Value of Plant response rating, Galium reported for the compound Cc1cccc(NC(=O)C2C(=O)NCC2c2cccc(C(F)(F)F)c2)c1 (stereo not shown) is 0

Here is another compound to look at.
Value of Plant response rating, Galium reported for the compound O=C1NCC(c2cc3ccccc3o2)C1C(=O)Nc1cccc(F)c1F (stereo not shown) is 40
